- tested_on: KOR (κ opioid receptor) (Homo sapiens, UniProt P41145)
- Construct: expressed in transfected cells; host or cells: HEK293 (stably transfected)
- Sequence (P41145 whole entry): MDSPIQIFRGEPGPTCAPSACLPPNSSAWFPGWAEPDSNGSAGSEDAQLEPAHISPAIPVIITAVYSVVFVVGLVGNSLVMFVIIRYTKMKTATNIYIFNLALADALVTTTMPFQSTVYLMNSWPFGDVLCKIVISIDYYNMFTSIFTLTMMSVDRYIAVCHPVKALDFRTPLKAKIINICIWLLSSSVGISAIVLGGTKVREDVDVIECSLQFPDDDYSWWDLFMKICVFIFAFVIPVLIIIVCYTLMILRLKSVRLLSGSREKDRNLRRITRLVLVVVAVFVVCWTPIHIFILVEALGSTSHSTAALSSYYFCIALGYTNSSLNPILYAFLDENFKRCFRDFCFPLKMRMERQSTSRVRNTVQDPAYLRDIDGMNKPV
- protocol_notes: KOR radioligand binding ([3H]-U69593, HEK293 cell homogenates)
- assay_setup: concentration-dependent, [3H]-U69593; read-out: KOR (Ki)
Below is a list of entries, each paired with its recorded pKi value.
Convention used: pKi is expressed as -log10 of the molar concentration.

Look over these answered cases.
C#Cc1ccc2c(c1)C(c1ccccc1)=NCc1c(-c3cnco3)ncn1-2 [KRM-II-82]; 5.92
C#Cc1ccc2c(c1)C(c1ccccc1F)=N[C@@H](C)c1c(C(=O)NC(C)(C)C)ncn1-2 [GL-I-41]; 7.41

Could you now look at the following molecule, please?
## Task Identify pKi associated with the molecule C#Cc1ccc2c(c1)C(c1ccccc1F)=N[C@@H](C)c1c(C(=O)OCC(F)(F)F)ncn1-2 [GL-I-36]
## Result 6.39

----------
- Tested on: BZR (benzodiazepine site of GABAAR)
- protocol_notes: GABAAR/BZR binding, rat brain homogenate with 3H-flunitrazepam
- assay_setup: Percent inhibition at 10,000 nM; rat brain homogenate, 3H-flunitrazepam
quantity_kind: BZR % (%)
Field format: number, assumed %, no unit text.

Look over these answered cases.
C#Cc1ccc2c(c1)C(c1ccccn1)=N[C@H](C)c1c(-c3nc(CC)no3)ncn1-2 [GL-II-54]; 66
C#Cc1ccc2c(c1)C(c1ccccc1F)=N[C@H](C)c1c(C(N)=O)ncn1-2 [MP-III-019.B]; 94
C#Cc1ccc2c(c1)C(c1ccccc1F)=N[C@@H](C)c1c(C(=O)OC(C)C)ncn1-2 [GL-I-31]; 97
Cc1ncoc1-c1ncn2c1CN=C(c1ccccc1F)c1cc(Br)ccc1-2 [KRM-III-59]; 96

## Task Identify BZR % associated with the molecule C#Cc1ccc2c(c1)C(c1ccccc1F)=N[C@H](C)c1c(C(=O)NC(C)C)ncn1-2 [GL-III-66]
## Result 88

## Task Identify BZR % associated with the molecule C#Cc1ccc2c(c1)C(c1ccccn1)=NCc1c(-c3nc(C)no3)ncn1-2 [MP-III-085]
## Result 82

## Task Identify BZR % associated with the molecule Cc1ncoc1-c1ncn2c1CN=C(c1ccccc1)c1cc(Br)ccc1-2 [KRM-III-66]
## Result 86

## Task Identify BZR % associated with the molecule COC(=O)c1ncn2c1[C@@H](C)N=C(c1ccccc1F)c1cc(Br)ccc1-2 [MP-III-058]
## Result 86

## Task Identify BZR % associated with the molecule C#Cc1ccc2c(c1)C(c1ccccc1F)=N[C@@H](C)c1c(C(=O)NCC)ncn1-2 [GL-I-43]
## Result 94

----------
- tested_on: MOR (μ opioid receptor) (Homo sapiens, UniProt P35372)
- Construct: expressed in transfected cells; host or cells: HEK293
- Sequence (P35372 whole entry, species assumed): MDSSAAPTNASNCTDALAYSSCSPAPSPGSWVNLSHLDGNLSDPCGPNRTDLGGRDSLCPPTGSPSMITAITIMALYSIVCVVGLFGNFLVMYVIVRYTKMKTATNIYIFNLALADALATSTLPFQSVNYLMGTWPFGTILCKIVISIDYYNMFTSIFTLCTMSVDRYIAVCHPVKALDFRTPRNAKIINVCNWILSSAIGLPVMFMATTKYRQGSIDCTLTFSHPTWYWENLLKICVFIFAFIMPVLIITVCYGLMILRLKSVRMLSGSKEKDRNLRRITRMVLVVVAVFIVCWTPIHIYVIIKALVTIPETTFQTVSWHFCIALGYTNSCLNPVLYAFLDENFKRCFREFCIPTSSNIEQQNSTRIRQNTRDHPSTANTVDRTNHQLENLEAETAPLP
- protocol_notes: MOR radioligand binding ([3H]-DAMGO, HEK293 cell homogenates)
- assay_setup: Percent inhibition at 10,000 nM; [3H]-DAMGO
quantity_kind: inhibition at 10 µM (%)
Field format: number, assumed %, no unit text.

Look over these answered cases.
C#Cc1ccc2c(c1)C(c1ccccc1F)=NCc1c(-c3ocnc3C)ncn1-2 [KRM-III-65]; 0
C#Cc1ccc2c(c1)C(c1ccccc1F)=N[C@@H](C)c1c(C(=O)NC3CC3)ncn1-2 [GL-I-55]; 17
C#Cc1ccc2c(c1)C(c1ccccc1F)=N[C@H](C)c1c(C(=O)NCC)ncn1-2 [GL-II-74]; 10

## Task Return reported inhibition at 10 µM for target or system MOR (μ opioid receptor) (Homo sapiens, UniProt P35372), item C#Cc1ccc2c(c1)C(c1ccccn1)=N[C@H](C)c1c(C(=O)OCC)ncn1-2 [GL-II-19] .
## Result 17

----------
- System: RAW macrophages
- protocol_notes: Cell viability (CellTiter-Glo), RAW macrophages
- Assay type: cell-based, mouse
- assay_setup: CellTiter-Glo
quantity_kind: Cell viability (%) RAW macrophages 50 μM
Field format: number, assumed %, no unit text.

## Task Identify Cell viability (%) RAW macrophages 50 μM associated with the compound CCc1noc(-c2ncn3c2[C@@H](C)N=C(c2ccccc2F)c2cc(Br)ccc2-3)n1
## Result 100

## Task Identify Cell viability (%) RAW macrophages 50 μM associated with the compound C#Cc1ccc2c(c1)C(c1ccccc1)=NCC(=O)N2
## Result 100

----------
- System: HEPG2
- protocol_notes: Viability assay (CellTiter-Glo), HEPG2
- Format: cell-based, human
- assay_setup: HepG2, 120 μM
- Method: The screen identified several compounds that reduced NO in activated microglia and macrophages. The tested compounds included achiral and chiral imidazodiazepines and benzodiazepines. […] Viability assay. […] The cells were incubated for 48 hours followed by the addition of CellTiter-Glo™, a luminescence-based cell viability assay (Promega, Madison, WI). All luminescence readings were performed on a Tecan Infinite M1000 plate reader. […] The data were analyzed by nonlinear regression.
quantity_kind: toxicity at 120 μM (in words)

CCc1noc(-c2ncn3c2[C@@H](C)N=C(c2ccccc2F)c2cc(C4CC4)ccc2-3)n1; to a lesser degree
CC1N=C(c2ccccc2F)c2cc(C#C[Si](C)(C)C)ccc2-n2cnc(-c3cnco3)c21 (centres unmarked); toxic
C#Cc1ccc2c(c1)C(c1ccccc1F)=N[C@H](C)c1c(-c3nc(C(C)C)no3)ncn1-2; to a lesser degree
Cc1noc(-c2ncn3c2[C@@H](C)N=C(c2ccccc2F)c2cc(C4CC4)ccc2-3)n1; toxic

Could you now look at the following compound, please?
## Task Identify toxicity at 120 μM (in words) associated with the compound CC1N=C(c2ccccc2F)c2cc(Br)ccc2-n2cnc(-c3cnco3)c21 (racemic) [GL-III-76A]
## Result toxic

----------
- Tested on: RAW macrophages
- protocol_notes: NO production (Griess assay), LPS/IFNγ-activated RAW264.7 macrophages
- Type: cell-based, mouse
- assay_setup: Mus musculus, Macrophage, 24 h
quantity_kind: inhibition at 10 µM (%)
Field format: number, assumed %, no unit text.

Look over these answered cases.
C#Cc1ccc2c(c1)C(c1ccccc1F)=N[C@@H](C)c1c(-c3cnco3)ncn1-2 [GL-III-78]; 0
C#Cc1ccc2c(c1)C(c1ccccc1F)=N[C@@H](C)c1c(-c3nc(C(C)C)no3)ncn1-2 [GL-I-81]; 0
CCNC(=O)c1ncn2c1[C@@H](C)N=C(c1ccccc1F)c1cc(C3CC3)ccc1-2 [GL-III-68]; 5
C#Cc1ccc2c(c1)C(c1ccccn1)=N[C@H](C)c1c(C(=O)OCC)ncn1-2 [GL-II-19]; 2
CC(C)c1noc(-c2ncn3c2[C@@H](C)N=C(c2ccccc2F)c2cc(C4CC4)ccc2-3)n1 [GL-IV-04]; 11

## Task Return reported inhibition at 10 µM for target or system RAW macrophages, item CCc1noc(-c2ncn3c2[C@@H](C)N=C(c2ccccc2F)c2cc(Br)ccc2-3)n1 [GL-III-98] .
## Result 1

## Task Return reported inhibition at 10 µM for target or system RAW macrophages, item C#Cc1ccc2c(c1)C(c1ccccc1F)=N[C@H](C)c1c(-c3nc(C(C)C)no3)ncn1-2 [MP-IV-010] .
## Result 10

## Task Return reported inhibition at 10 µM for target or system RAW macrophages, item C[C@H]1N=C(c2ccccn2)c2cc(Br)ccc2-n2cnc(C(=O)O)c21 [GL-II-51] .
## Result 0

----------
Below is a list of entries, each paired with its recorded Inhibition of NO production (%) RAW macrophages 10 μM value.
- Tested on: RAW macrophages
- protocol_notes: NO production (Griess assay), LPS/IFNγ-activated RAW264.7 macrophages
- Format: cell-based, mouse
- assay_setup: 10 μM, 24 hours, 1 μM GABA, LPS/IFNγ
Field format: number, assumed %, no unit text.

C#Cc1ccc2c(c1)C(c1ccccc1F)=NC(C)c1c(C(=S)NC3CC3)ncn1-2 (stereo not shown); 0
CCOC(=O)c1ncn2c1[C@@H](C)N=C(c1ccccc1F)c1cc(Cl)ccc1-2; 3
C#Cc1ccc2c(c1)C(c1ccccn1)=NCc1c(C(=O)O)ncn1-2; 0

Could you now look at the following compound, please?
## Task Return reported Inhibition of NO production (%) RAW macrophages 10 μM for target or system RAW macrophages, item CC1N=C(c2ccccc2F)c2cc(Br)ccc2-n2cnc(-c3cnco3)c21 (racemic) [GL-III-76A] .
## Result 6

----------
- tested_on: DOR (δ opioid receptor) (Homo sapiens, UniProt P41143)
- Construct: expressed in transfected cells; host or cells: HEK293
- Sequence (P41143 whole entry): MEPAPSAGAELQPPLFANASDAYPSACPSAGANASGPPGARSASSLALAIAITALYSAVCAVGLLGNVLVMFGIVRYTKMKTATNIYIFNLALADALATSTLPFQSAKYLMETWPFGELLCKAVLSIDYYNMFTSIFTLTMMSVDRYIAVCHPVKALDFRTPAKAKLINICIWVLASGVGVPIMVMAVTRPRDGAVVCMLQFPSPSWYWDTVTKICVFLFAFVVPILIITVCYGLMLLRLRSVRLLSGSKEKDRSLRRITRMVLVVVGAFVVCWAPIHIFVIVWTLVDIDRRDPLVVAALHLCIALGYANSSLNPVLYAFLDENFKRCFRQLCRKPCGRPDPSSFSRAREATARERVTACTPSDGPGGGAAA
- protocol_notes: DOR radioligand binding ([3H]-DADLE, HEK293 cell homogenates)
- assay_setup: Percent inhibition at 10,000 nM; [3H]-DADLE
# inhibition at 10 µM >= 8% gives 1, anything below gives 0

Completed entries (count: 4):
C#Cc1ccc2c(c1)C(c1ccccc1F)=N[C@H](C)c1c(C(=O)NC3CC3)ncn1-2; 0
C#Cc1ccc2c(c1)C(c1ccccc1F)=N[C@@H](C)c1c(C(=O)OC(C)(C)CC)ncn1-2; 1
C#Cc1ccc2c(c1)C(c1ccccc1F)=N[C@H](C)c1c(C(=O)NC)ncn1-2; 1
C#Cc1ccc2c(c1)C(c1ccccc1F)=NCc1c(-c3ocnc3C)ncn1-2; 1

## Task Test whether the molecule C#Cc1ccc2c(c1)C(c1ccccc1F)=N[C@@H](C)c1c(C(=O)NC3CC3)ncn1-2 records inhibition at 10 µM of 8% or higher.
## Result 1

## Task Test whether the molecule C[C@H]1N=C(c2ccccc2F)c2cc(Cl)ccc2-n2cnc(C(=O)O)c21 records inhibition at 10 µM of 8% or higher.
## Result 0

## Task Test whether the molecule C#Cc1ccc2c(c1)C(c1ccccn1)=N[C@H](C)c1c(C(=O)OCC)ncn1-2 records inhibition at 10 µM of 8% or higher.
## Result 0

## Task Test whether the molecule C[C@H]1N=C(c2ccccc2F)c2cc(Br)ccc2-n2cnc(-c3cnco3)c21 records inhibition at 10 µM of 8% or higher.
## Result 1

## Task Test whether the molecule COC(=O)c1ncn2c1[C@@H](C)N=C(c1ccccc1F)c1cc(Br)ccc1-2 records inhibition at 10 µM of 8% or higher.
## Result 0

## Task Test whether the molecule C#Cc1ccc2c(c1)C(c1ccccc1F)=N[C@@H](C)c1c(C(=O)NCC)ncn1-2 records inhibition at 10 µM of 8% or higher.
## Result 0

## Task Test whether the molecule C[C@H]1N=C(c2ccccc2F)c2cc(Br)ccc2-n2cnc(C(=O)N(C)C)c21 records inhibition at 10 µM of 8% or higher.
## Result 1

## Task Test whether the molecule C#Cc1ccc2c(c1)C(c1ccccc1F)=N[C@@H](C)c1c(C(N)=O)ncn1-2 records inhibition at 10 µM of 8% or higher.
## Result 1

## Task Test whether the molecule C#Cc1ccc2c(c1)C(c1ccccc1F)=N[C@H](C)c1c(C(=O)N3CCCC3)ncn1-2 records inhibition at 10 µM of 8% or higher.
## Result 0

## Task Test whether the molecule Cc1ncoc1-c1ncn2c1CN=C(c1ccccc1)c1cc(Br)ccc1-2 records inhibition at 10 µM of 8% or higher.
## Result 1

## Task Test whether the molecule C#Cc1ccc2c(c1)C(c1ccccn1)=N[C@H](C)c1c(C(=O)O)ncn1-2 records inhibition at 10 µM of 8% or higher.
## Result 0

## Task Test whether the molecule C#Cc1ccc2c(c1)C(c1ccccc1F)=N[C@H](C)c1c(C(=O)NC(C)C)ncn1-2 records inhibition at 10 µM of 8% or higher.
## Result 0

## Task Test whether the molecule C#Cc1ccc2c(c1)C(c1ccccc1F)=N[C@@H](C)c1c(C(=O)OCC(F)(F)F)ncn1-2 records inhibition at 10 µM of 8% or higher.
## Result 0

## Task Test whether the molecule C[C@@H]1N=C(c2ccccc2F)c2cc(Br)ccc2-n2cnc(-c3cnco3)c21 records inhibition at 10 µM of 8% or higher.
## Result 0

## Task Test whether the molecule C#Cc1ccc2c(c1)C(c1ccccc1F)=N[C@@H](C)c1c(-c3nc(C(C)C)no3)ncn1-2 records inhibition at 10 µM of 8% or higher.
## Result 1

## Task Test whether the molecule C#Cc1ccc2c(c1)C(c1ccccn1)=NCc1c(C(=O)OC(C)C)ncn1-2 records inhibition at 10 µM of 8% or higher.
## Result 1

The reported measurements were obtained from patent US20240279232A1.
